# assay system: T1, gastrin-releasing peptide receptor (GRPR) (human, UniProt P30550 1-384)
# T1 construct: whole, on cells; also called GRP receptor
# T1 sequence (P30550 whole entry): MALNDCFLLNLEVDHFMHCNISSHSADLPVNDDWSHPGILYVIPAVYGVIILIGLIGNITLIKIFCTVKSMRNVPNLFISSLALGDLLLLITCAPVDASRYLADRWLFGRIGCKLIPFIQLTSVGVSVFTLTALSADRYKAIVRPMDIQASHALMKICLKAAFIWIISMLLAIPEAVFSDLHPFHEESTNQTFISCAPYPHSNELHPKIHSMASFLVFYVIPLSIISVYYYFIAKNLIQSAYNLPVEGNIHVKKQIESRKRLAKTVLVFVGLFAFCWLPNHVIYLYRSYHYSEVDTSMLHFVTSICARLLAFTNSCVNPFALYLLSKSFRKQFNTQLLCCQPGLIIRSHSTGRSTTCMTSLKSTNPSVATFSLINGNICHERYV
# assay explanation: displacement of ^125I-[Tyr^4]BBN from 10^5 PC-3 cells
So I've got a bunch of binders here, and I need their pIC50 values.
Answers are plain numbers, as −log10 of the molar value.

NH2-Glu-BBN(7-14)-c(RGDyK) (BBN-RGD) (free amino group on Glu; Aca between Glu and Gln; C-terminal amide (Met-NH2); cyclic (cyclo); D-Tyr at position 4; Lys joined to one carboxylate of the Glu linker, also called heterodimer BBN-RGD; BBN-RGD heterodimeric construct) peptide 1: RGDYK peptide 2: EQWAVGHLM = 7.45

q: State its pIC50 for this binder: FB-NH-Glu-BBN(7-14)-c(RGDyK) (FB-BBN-RGD) (4-fluorobenzoyl (FB) on the Glu amino group; Aca between Glu and Gln; C-terminal amide (Met-NH2); cyclic (cyclo); D-Tyr at position 4; Lys joined to one carboxylate of the Glu linker, non-radioactive FB form used in the IC50 assays; also called ^18F-FB-BBN-RGD) peptide 1: RGDYK peptide 2: EQWAVGHLM
a: 7.49
